Just for reference, patent US20260151494A1 is where these values come from.

# Tgt: T1, apical domain of cynomolgus CD71 (cynomolgus, UniProt A0A2K5X958 189-383)
# T1 construct: domain: apical domain; also called Cyno apical domain
# Protocol description: primary ELISA, signal ratio to HSA
Can you tell me Cyno apical domain:HSA for the items I'm about to list?

Given CD71-binding FN3 domain of SEQ ID NO: 153 (designed binder) MSLPAPKNLVVSRVTEDSARLSWTAPDAAFDSFYIAYAEPRPDGEAIVLAVPGSERSYDLTGLKPGTEYSVLIHGVKGGLLSSPLGADFTT , respond with its Cyno apical domain:HSA.
127

Given CD71-binding FN3 domain of SEQ ID NO: 201 (designed binder) MSLPAPKNLVVSRVTEDSARLSWTAPDAAFDSFEIAYFEGTFHGEAIVLFVPGSERSYDLTGLKPGTEYAVWIGGVKGGDYSRPLSAAFTT , respond with its Cyno apical domain:HSA.
76

Given CD71-binding FN3 domain of SEQ ID NO: 192 (designed binder) MSLPAPKNLVVSRVTEDSARLSWTAPDAAFDSFEIGYFENLYLGEAIVLTVPGSERSYDLTGLKPGTEYWVQIGGVKGGWGSNPLSAIFTT , respond with its Cyno apical domain:HSA.
90

Given CD71-binding FN3 domain of SEQ ID NO: 184 (designed binder) MSLPAPKNLVVSRVTEDSARPSWTAPDAAFDSFEIAYFERTWFGEAIVLTVPGSERSYDLTGLKPGTEYWVQIGGVKGGDWSKPLSAIFTT , respond with its Cyno apical domain:HSA.
101
